Kindly find below Ki information for Prothrombin (Homo sapiens, UniProt P00734) taken from the literature.
measurement-kind: Ki

{"compound": "CSCCC(NC(=O)C(CC(C)C)NC(=O)CNC(=O)C(NC(=O)C(Cc1ccccc1)NC(=O)C(CO)NC(=O)C(CC(=O)O)NC(=O)C(NC(=O)C(CCCCN)NC(=O)C(N)Cc1cnc[nH]1)C(C)O)C(C)C)C(N)=O (stereo not drawn)", "system": "Prothrombin (Homo sapiens, UniProt P00734)", "measurement-kind": "Ki", "assay-value": "> 10 µM"}
{"compound": "Cc1cnc(NCCc2ccccc2)c(=O)n1CC(=O)NCc1ccc2[nH]nnc2c1", "system": "Prothrombin (Homo sapiens, UniProt P00734)", "measurement-kind": "Ki", "assay-value": "0.224 µM"}
{"compound": "CCCN1Cc2sc(C(=O)Nc3ccc(Cl)cc3C(=O)Nc3ccc(Cl)cc3)c(Cl)c2C1", "system": "Prothrombin (Homo sapiens, UniProt P00734)", "measurement-kind": "Ki", "assay-value": "3.2 µM"}
{"compound": "N=C(N)c1cc2cccnc2s1", "system": "Prothrombin (Homo sapiens, UniProt P00734)", "measurement-kind": "Ki", "assay-value": "1600 µM"}
{"compound": "Cc1ccc(NS(=O)(=O)Cc2ccccc2)c(=O)n1CC(=O)NCc1ccc2c(N)[nH]nc2n1", "system": "Prothrombin (Homo sapiens, UniProt P00734)", "measurement-kind": "Ki", "assay-value": "1.59 µM"}
{"compound": "Cc1cnc(NC[C@@H](C)c2ccccc2)c(=O)n1CC(=O)NCc1ccc2[nH]cnc2c1", "system": "Prothrombin (Homo sapiens, UniProt P00734)", "measurement-kind": "Ki", "assay-value": "0.0093 µM"}
{"compound": "Cc1cnc(NCCc2ccccc2)c(=O)n1CC(=O)NCc1ccc2[nH]nc(O)c2c1", "system": "Prothrombin (Homo sapiens, UniProt P00734)", "measurement-kind": "Ki", "assay-value": "0.033 µM"}
{"compound": "Cc1ccc(NS(=O)(=O)Cc2ccccc2)c(=O)n1CC(=O)NCc1ccc2c(N)[nH]nc2c1", "system": "Prothrombin (Homo sapiens, UniProt P00734)", "measurement-kind": "Ki", "assay-value": "0.224 µM"}

====

Across several studies, compounds have been characterized by their Ki on Prothrombin (Homo sapiens); a selection follows.

{"compound": "N=C(N)c1ccc2nc(-c3cc(CCN)cc(-c4ccccc4)c3O)[nH]c2c1", "system": "Prothrombin (Homo sapiens)", "Ki": "1000 nM"}
{"compound": "NC(N)=Nc1ccc(NC(=O)c2cc3ccccc3c(O)c2O)cn1", "system": "Prothrombin (Homo sapiens)", "Ki": "> 450000 nM"}
{"compound": "Cc1n[nH]c2ccc(CNC(=O)Cn3c(C)cnc(NCCc4ccccc4)c3=O)cc12", "system": "Prothrombin (Homo sapiens)", "Ki": "444 nM"}
{"compound": "Cc1cnc(NCCc2ccccc2)c(=O)n1CC(=O)NCc1ccc2nc(N)sc2c1", "system": "Prothrombin (Homo sapiens)", "Ki": "> 3970 nM"}
{"compound": "COc1cc(C(Nc2ccc(C(=N)N)cc2)C(=O)N[C@H](C(=O)O)c2ccccc2)c(C(=O)Cc2ccccc2)cc1OCc1ccccc1 (stereo partly drawn)", "system": "Prothrombin (Homo sapiens)", "Ki": "6400 nM"}
{"compound": "COc1ccc(C2(CNc3ncc(C)n(CC(=O)NCc4ccc5[nH]nc(N)c5c4)c3=O)CC2)cc1", "system": "Prothrombin (Homo sapiens)", "Ki": "9 nM"}
{"compound": "Cc1cnc(NCC(F)(F)c2ccccc2)c(=O)n1CC(=O)NCc1ccc2[nH]nc(N)c2c1", "system": "Prothrombin (Homo sapiens)", "Ki": "4.1 nM"}
{"compound": "Cc1cnc(NCC2(c3ccccc3)CCC2)c(=O)n1CC(=O)NCc1ccc2[nH]nc(O)c2c1", "system": "Prothrombin (Homo sapiens)", "Ki": "10 nM"}
{"compound": "COc1cccc(CCNc2ncc(C)n(CC(=O)NCc3ccc4[nH]ncc4c3)c2=O)c1", "system": "Prothrombin (Homo sapiens)", "Ki": "10 nM"}
{"compound": "N=C(N)Nc1ccc(NC(=O)c2cc3ccccc3cc2O)cn1", "system": "Prothrombin (Homo sapiens)", "Ki": "54000 nM"}
{"compound": "O=C1CN(S(=O)(=O)c2cc3ccc(Cl)cc3s2)CCN1Cc1cc2c(=O)[nH]ccc2[nH]1", "system": "Prothrombin (Homo sapiens)", "Ki": "> 3900 nM"}
{"compound": "Cc1cnc(NC[C@H](C)c2ccccc2)c(=O)n1CC(=O)NCc1ccc2[nH]ncc2c1", "system": "Prothrombin (Homo sapiens)", "Ki": "5.7 nM"}
{"compound": "Cc1cnc(NCCc2ccccn2)c(=O)n1CC(=O)NCc1ccc2[nH]ncc2c1", "system": "Prothrombin (Homo sapiens)", "Ki": "3.1 nM"}
{"compound": "Cc1cnc(NCCc2ccc(F)cc2)c(=O)n1CC(=O)NCc1ccc2c(N)noc2c1", "system": "Prothrombin (Homo sapiens)", "Ki": "18 nM"}
{"compound": "N=C(N)c1ccc2nc(-c3cc(OC(F)(F)F)ccc3O)[nH]c2c1", "system": "Prothrombin (Homo sapiens)", "Ki": "49000 nM"}
{"compound": "Cc1ccc(NS(=O)(=O)Cc2ccccc2)c(=O)n1CC(=O)NCc1ccc2[nH]nc(N)c2c1", "system": "Prothrombin (Homo sapiens)", "Ki": "73 nM"}
{"compound": "Nc1nccc2ccc(CN3CC[C@H](NS(=O)(=O)c4cc5ncccc5s4)C3=O)cc12", "system": "Prothrombin (Homo sapiens)", "Ki": "> 4000 nM"}
{"compound": "CC(C)C[C@H](NC(=O)[C@H](CC(C)C)NC(=O)[C@H](Cc1ccccc1)NC(=O)[C@@H](N)CO)C(=O)N[C@@H](CCCN=C(N)N)C(=O)N[C@@H](CC(N)=O)C(=O)O", "system": "Prothrombin (Homo sapiens)", "Ki": "540 nM"}
